The measurements presented in this section are drawn from the supplement of paper PMC12667976.

B1: library; numbered along this chain (parent)
chain: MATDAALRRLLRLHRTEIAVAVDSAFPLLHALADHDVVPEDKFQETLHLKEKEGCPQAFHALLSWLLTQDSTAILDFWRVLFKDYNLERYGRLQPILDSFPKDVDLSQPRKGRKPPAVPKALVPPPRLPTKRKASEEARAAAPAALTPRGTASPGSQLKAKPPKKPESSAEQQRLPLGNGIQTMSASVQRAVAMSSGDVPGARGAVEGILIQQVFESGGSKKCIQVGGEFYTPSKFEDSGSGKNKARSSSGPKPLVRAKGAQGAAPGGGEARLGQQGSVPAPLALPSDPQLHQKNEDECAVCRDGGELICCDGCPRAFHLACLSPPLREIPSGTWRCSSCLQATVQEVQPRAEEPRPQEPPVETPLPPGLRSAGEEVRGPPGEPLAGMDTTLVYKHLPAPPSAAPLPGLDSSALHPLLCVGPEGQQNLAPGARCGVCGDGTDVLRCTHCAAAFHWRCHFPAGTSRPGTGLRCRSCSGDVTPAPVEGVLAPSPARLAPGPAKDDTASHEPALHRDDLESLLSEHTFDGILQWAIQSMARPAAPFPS

Variants of: B1
Test: AIRE transcriptional activation functional score (insulin promoter-GFP; nonsense median 0, synonymous median 1) (normalised score); higher = higher AIRE activity (more reporter activation)
Details: with insulin promoter-GFP reporter in HEK293
Readout kind: AIRE transcriptional activation functional score
Lab note: record the figure alone, no unit after it.

Solved entries:
{"Mutant code": "E347S", "Value measured": 1.12}
{"Mutant code": "H507E", "Value measured": 0.521}
{"Mutant code": "G197D", "Value measured": 0.624}

Reported AIRE transcriptional activation functional score of E363G : 1.02

Per the record, G180A has AIRE transcriptional activation functional score of 1.21

For G54V the variant record lists AIRE transcriptional activation functional score as 0.385

According to the records, this variant E383H displays AIRE transcriptional activation functional score of 0.859
